Test system: A498 renal
Assay: NCI-60 one-dose screen, 48 h
Details: 10 µM unless noted
The panel holds about 83,000 compounds, 20% with a hit somewhere; the sample as a whole holds those more often. Calls of active or inactive are those of the source. The calls were made as follows: active = growth percent below 10; inactive = the rest.
Entry note: the call must match one of YES (active), NO (inactive)

- COc1cccc(Oc2ccccc2NC(=O)CNC(=O)c2cccc3ccccc23)c1: YES
- COc1c(N2CC3CCCN(C(C)=O)C3C2)c(F)cc2c(=O)c(C(=O)N[C@H]3C(O)[C@@H](O)C(CO)O[C@H]3O)cn(C3CC3)c12 (some centres undefined): NO
- O=c1c2cc(F)ccc2sc2c(NCCN3CCOCC3)nc3ccccc3c12: NO
- CCCC1CCC(O)(C(C)(O)C(=O)NC2C(=O)N3NCCCC3C(=O)N(O)C(C)C(=O)N3NCCCC3C(=O)N3NCC(O)CC3C(=O)NC(C)C(=O)OC2C(C)C)OC1CC (centres undefined): YES
- O=C(Cc1ccc(F)c(Cl)c1)Nc1cc(C2(C(F)(F)F)CC2)nn1Cc1ccccc1: YES
- CN(C)CCN1CCN(c2ncccc2C2Nc3ccccc3-n3cccc32)CC1 (centres undefined): NO
- NCCNc1nc2ccccc2c2c(=O)c3cc(F)ccc3sc12: NO
- Brc1ccc2[nH]cc(-c3nc(-c4c[nH]c5ccncc45)cs3)c2c1: NO

In the following, a different compound is considered.
### Prompt Recorded test outcome, item COC(=O)Nc1ccc(-c2nc(-c3cccc(OC)c3)c(-c3ccnc(Br)c3)[nH]2)cc1
### Response NO

---

System: SR leukemia
Assay: NCI-60 one-dose screen, 48 h
Conditions: 10 µM unless noted
Protocol: Growth inhibition of the SR human tumor cell line is measured as a screen for anti-cancer activity. Cells are grown in 96 well plates and exposed to the test compound for 48 hours. Compounds are tested at a single concentration, which is 10^-5 M for most compounds. The reported endpoint is percent growth (GI% or GIPRCNT), where numbers from 0 - 100% represent growth inhibition, and numbers from -100% - 0 represent cell death. For example, a value of 40 represents 60% growth inhibition. […]
The panel holds about 83,000 compounds, 20% with a hit somewhere; the sample as a whole holds those more often. Active and inactive are the calls of the source. The calls were made as follows: active = growth percent below 10; inactive = the rest.
Entry note: the call must match one of active, inactive

Worked cases, answers included:
• Cc1ccc(/C=C(\C#N)n2nc3cccc(F)c3n2)cc1 = inactive
• O=c1c2cc(C(F)(F)F)ccc2sc2c(NCCCNCCO)nc3ccccc3c12 = active
• Cc1cccc2c(=O)c3c(sc12)c(NCc1ccccc1)nc1ccccc13 = inactive

In the following, a different molecule is considered.
### Prompt Recorded test outcome, item CC1Cc2c(ncn3c(-c4ccc(F)cc4)nnc23)N(C)c2ccccc21 (stereo not drawn)
### Response inactive

---

Test system: HCT-116 colon
Assay: NCI-60 one-dose screen, 48 h
Conditions: 10 µM unless noted
The panel holds about 83,000 compounds, 20% with a hit somewhere; the sample as a whole holds those more often. Activity calls are given as the source filed them. Rule for the calls: active = growth percent below 10; inactive = the rest.
Entry note: the call must match one of active, inactive

Worked cases, answers included:
• c1ccc2cc(C[n+]3ccn(CCCCCCn4cc[n+](Cc5ccc6ccccc6c5)c4)c3)ccc2c1 = inactive
• O=C(Oc1cccc2ccccc12)Oc1cccc2ccccc12 = inactive
• C/C(=C(/c1ccccc1)c1ccc(N2C(=O)c3cccc4c(N5CCN(C)CC5)ccc(c34)C2=O)cc1)c1ccccc1 = inactive
• C#Cc1cccc(NC(=O)c2ccc(NC(=O)C=C)cc2)c1 = inactive
• COc1ccc(OC)c(/C=C/C(=O)N/N=C/c2ccc(Cl)cc2)c1 = active

### Prompt Recorded test outcome, item O=C(/C=C/c1sc(Cl)nc1Cl)c1ccc(F)cc1
### Response inactive

### Prompt Same again, this time with BrCCCc1n(Cc2ccc3ccccc3c2)c2ccccc2[n+]1Cc1ccc2ccccc2c1
### Response active

### Prompt Same again, this time with Nc1ccc(Sc2ccc([N+](=O)[O-])c3nonc23)cc1
### Response inactive

### Prompt Same again, this time with O=C1c2cccc3cccc(c23)C(=O)N1Nc1nc(NC2CCCCC2)nc(N2CCOCC2)n1
### Response inactive

### Prompt Same again, this time with CSc1ncccc1C(=O)OCC(=O)Nc1oc(C)c2c(C)n[nH]c(=O)c12
### Response inactive

---

Test system: CCRF-CEM leukemia
Test: NCI-60 one-dose screen, 48 h
Details: 10 µM unless noted
The panel holds about 83,000 compounds, 20% with a hit somewhere; the sample as a whole holds those more often. Active and inactive are the calls of the source. How the source made its calls: active means growth percent below 10; inactive means the rest.
Entry note: the call must match one of true for active, false for inactive

• CN1CCN(CC(=O)N2c3cccc4cccc(c34)N(C(=O)CN3CCN(C)CC3)C2c2cn(-c3ccccc3)nc2-c2cccc([N+](=O)[O-])c2)CC1 = true
• COc1nc2ccccc2cc1-c1nc2c(cnn2-c2ccc(Br)cc2)c(=O)[nH]1 = false

### Prompt Recorded test outcome, item COc1cccc(Oc2ccccc2NC(=O)CNC(=O)c2cccc3ccccc23)c1
### Response false

### Prompt Same again, this time with Cn1cc(-c2cc3ncnc(Nc4ccc(CC(=O)Nc5cc(C(C)(C)C)nn5C)cc4)c3s2)cn1
### Response false

### Prompt Same again, this time with OC(c1ccccc1)C(NC(Cc1ccccc1)c1ccccc1)c1ccccc1 (stereo not given)
### Response false

### Prompt Same again, this time with N#Cc1cccc(NC(=O)c2cc(-c3ccc(F)cc3F)ccc2O)c1
### Response false

### Prompt Same again, this time with N#Cc1c(-c2ccc(Cl)cc2)nc(NCCO)[nH]c1=O
### Response false

### Prompt Same again, this time with C[C@]12CC[C@@H]3c4cc(OC(F)F)c(OS(N)(=O)=O)cc4CC[C@H]3[C@@H]1CC[C@@H]2OS(N)(=O)=O
### Response false

### Prompt Same again, this time with CCc1cccc2c1S/C(=C/c1ccc(OC)cc1)C2=O
### Response false

---

Test system: MCF7 breast
Assay: NCI-60 one-dose screen, 48 h
Conditions: 10 µM unless noted
Compounds without any hit were thinned out: in the full panel of roughly 83,000, 20% have a hit. Activity calls are given as the source filed them. How the source made its calls: active means growth percent below 10; inactive means the rest.
Entry note: the call must match one of 1.0 = active, 0.0 = inactive

- Cc1ccc(-c2nc(SCC(=O)Nc3nc(-c4ccc(Cl)cc4)cs3)[nH]c(=O)c2C#N)cc1: 0.0

### Prompt Recorded test outcome, item CCOC(=O)c1c(C)oc2ncnc(N3CCN(C(=O)COc4ccc(C(C)(C)C)cc4)CC3)c12
### Response 0.0

### Prompt Same again, this time with COc1cc(CCCO)c(OC)c(OC)c1OC
### Response 0.0

### Prompt Same again, this time with COc1ccc2sc3c(NCCCN(C)C)nc4ccccc4c3c(=O)c2c1
### Response 0.0

### Prompt Same again, this time with c1ccc(-c2nc3sc(-c4ccccc4)cn3n2)cc1
### Response 0.0

### Prompt Same again, this time with O=C(Nc1ccc(OS(=O)(=O)c2ccc(F)cc2)cc1)c1ccc(Cl)cc1
### Response 0.0

### Prompt Same again, this time with CC/C=C\C[C@@H](O)C/C=C1/C(=O)C=C[C@H]1C/C=C\CCCC(=O)OC
### Response 1.0

### Prompt Same again, this time with O=c1n(Cc2ccc3ccccc3c2)ccn1Cc1ccc2ccccc2c1
### Response 0.0

### Prompt Same again, this time with COc1ccc(S(=O)(=O)n2cc(C3OC(c4cc(OC)c(OC)c(OC)c4)=NN3C(C)=O)c3ccccc32)cc1OC (stereo unspecified)
### Response 0.0

### Prompt Same again, this time with O=c1c2cccc(Cl)c2sc2c(NCCCNCCO)nc3ccccc3c12
### Response 0.0

---

The following molecules are shown together with reported growth values.
System: NCI-H23 lung
Test: NCI-60 one-dose screen, 48 h (100 = growth as untreated, 0 = no growth, -100 = all killed)
Details: 10 µM unless noted
This is part of a sample that, as a whole, favours compounds with a hit. Of some 83,000 tested, about 20% had one in any assay.
// return numeric value only (unit: %, not printed)

Below, each entry is followed by its recorded growth result.
* CCCCCCn1c(-c2ccc(C(=O)O/N=C(\N)c3ccc4c(c3)OCO4)cc2)nc(-c2ccccc2)c1-c1ccccc1 | -30.8
* C=C1C(=O)O[C@H]2[C@H]1CC/C(COC(=O)NCCOCCOCC(=O)Nc1ccc(OC)c(C(N)=O)c1O)=C\CC[C@@]1(C)O[C@@H]21 | 78.5
* CN(C)CC#Cc1ccc2ncc(C#N)c(Nc3ccc(F)c(Cl)c3)c2c1 | 58.2

Let us move to another entry and its growth.
### Prompt What does the data say about its growth? Entry: c1ccc2cc(C[n+]3ccn(CCCCCCCCCCCCn4cc[n+](Cc5ccc6ccccc6c5)c4)c3)ccc2c1
### Response -80.3

---

Test system: KM12 colon
Test: NCI-60 one-dose screen, 48 h
Details: 10 µM unless noted
This is part of a sample that, as a whole, favours compounds with a hit. Of some 83,000 tested, about 20% had one in any assay. Active and inactive are the calls of the source. Rule for the calls: active = growth percent below 10; inactive = the rest.
Entry note: the call must match one of active, inactive

Worked cases, answers included:
• COc1ccc2cc(C(C)C(=O)Nc3ccc(-c4n[nH]c(=S)n4C4CCCCC4)cc3)ccc2c1 (stereo not given) = inactive
• COc1ccc(/C=N/Nc2cc(=O)[nH]c3ccc(C)cc23)cc1 = inactive
• Cc1ccc(/C=C2\Oc3ccc(O)c(O)c3C2=O)cc1 = inactive
• COc1cc(C(=O)/C=C/c2c(Cl)nc3sccn23)cc(OC)c1OC = inactive
• Cc1ccc(C2CC(c3ccc(Nc4ccnc5cc(Cl)ccc45)cc3)=NN2C=O)cc1 (stereo not given) = inactive
• C[N+]1=C(/C=C/c2ccc(O)c3ncccc23)C(C)(C)c2ccccc21 = inactive

### Prompt Recorded test outcome, item Cc1cc(-c2cc(C)c(N)cc2C)c(C)cc1N
### Response inactive

### Prompt Same again, this time with Cc1cc(Cl)ccc1NS(=O)(=O)c1ccc(-c2cnc(C3CC3)o2)cc1
### Response inactive

### Prompt Same again, this time with Cc1ccc(-c2nn(C)c(=O)c3noc(-c4ccc(C)cc4)c23)cc1
### Response inactive

### Prompt Same again, this time with O=C(CCCCCCSc1nc(-c2ccccc2)cc(-c2ccccc2)n1)NO
### Response inactive

### Prompt Same again, this time with CN1CCN(Cc2ccc(NC(=O)c3ccc(C(C)(C)C)c(C#Cc4cnc5cccnn45)c3)cc2C(F)(F)F)CC1
### Response active
